target: Muscarinic acetylcholine receptor; test: Equilibrium dissociation constant muscarinic receptor complex, measured in guinea pig ileum; format: functional, tissue-based, Cavia porcellus
Values of Kd strictly less than 5 µM map to y, and values of at least 5 µM map to n.

COMPOUND	CAT
CC(=O)N(CC#CCN1CCCC1)C(C)=O	y
CC(C#CCN1CCCC1)N(C)C(=O)C(F)(F)F (stereo not drawn)	y
CC(C#CCN1CCCC1)N(S(C)(=O)=O)S(C)(=O)=O (stereo not drawn)	n

QUERY: Determine if `CC(=O)N(CC#CC[N+](C)(C)C)C(C)=O` shows Kd strictly lower than 5 µM.
RESULT: n

QUERY: Determine if `CCN(CC)CC#CCN(C(C)=O)C(C)=O` shows Kd strictly lower than 5 µM.
RESULT: n

QUERY: Determine if CC(=O)N(C(C)=O)C(C)C#CCN1CCCC1 (stereo not drawn) shows Kd strictly lower than 5 µM.
RESULT: y

QUERY: Determine if `CN(CC#CCN1CCCC1)C(=O)C(F)(F)F` shows Kd strictly lower than 5 µM.
RESULT: n

QUERY: Determine if `CS(=O)(=O)N(CC#CCN1CCCC1)S(C)(=O)=O` shows Kd strictly lower than 5 µM.
RESULT: n

###

species on record: Cavia porcellus; test: Concentration that elicits 50% of its own maximum contractile response, in guinea pig ileum; assay type: functional
Values of EC50 strictly less than 1000 nM map to 1.0, and values of at least 1000 nM map to 0.0.

Study these solved cases before continuing.
COMPOUND	CAT
CC(=O)N(C(C)=O)C(C)C#CC[N+](C)(C)C (stereo unspecified)	0.0
C[N+](C)(C)CCOC(N)=O.[Cl-]	1.0

QUERY: Determine if `CN(CC#CCN1CCCC1)C(=O)C(F)(F)F` shows EC50 strictly lower than 1000 nM.
RESULT: 0.0

QUERY: Determine if CC(C#CC[N+](C)(C)C)N(C)C(=O)C(F)(F)F (stereo unspecified) shows EC50 strictly lower than 1000 nM.
RESULT: 0.0

QUERY: Determine if CC(=O)N(C(C)=O)C(C)C#CCN(C)C (stereo unspecified) shows EC50 strictly lower than 1000 nM.
RESULT: 0.0

QUERY: Determine if CC(=O)N(C)C(C)C#CCN1CCCC1 (stereo unspecified) shows EC50 strictly lower than 1000 nM.
RESULT: 1.0

###

species on record: Cavia porcellus; experiment: Equipotent molar ratio relative to that of carbachol, which equals 1, in guinea pig ileum; format: functional
MEASURED_ATTRIBUTE: EPMR
Output: the number by itself.

COMPOUND	EPMR
C[N+](C)(C)CCOC(N)=O.[Cl-]	1
CC(=O)N(C(C)=O)C(C)C#CC[N+](C)(C)C (configuration not stated)	10.7
CC(=O)N(CC#CCN(C)C)C(C)=O	320
CC(C#CC[N+](C)(C)C)N(C)C(=O)C(F)(F)F (configuration not stated)	214
CC(=O)N(CC#CC[N+](C)(C)C)C(C)=O	19.3
CC(=O)N(C(C)=O)C(C)C#CCN(C)C (configuration not stated)	57.9

Proceed to the following item.
Recorded EPMR (compound `CN(CC#CCN1CCCC1)C(=O)C(F)(F)F` ): 145

###

molecular target: Muscarinic acetylcholine receptor; experiment: Equilibrium dissociation constant muscarinic receptor complex, measured in guinea pig ileum; format: functional, tissue-based, Cavia porcellus
Below, each of the compounds is paired with its reported Kd value.

COMPOUND	RECORDED_RESULT
O=C1CCC(=O)N1CC#CCN1CCCC1	5 µM
CC(C#CCN1CCCC1)N1C(=O)CCC1=O (stereo not given)	0.15 µM

Recorded Kd (compound CC(=O)N(C(C)=O)C(C)C#CC[N+](C)(C)C (stereo not given) ): 8.6 µM

Recorded Kd (compound `CC(=O)N(CC#CCN1CCCC1)S(C)(=O)=O` ): 17.9 µM

Recorded Kd (compound CCN(CC)CC#CC(C)N(C(C)=O)C(C)=O (stereo not given) ): 1.6 µM

Recorded Kd (compound `CC(=O)N(C)CC#CCN1CCCC1` ): 2.2 µM

Recorded Kd (compound CC(C#CC[N+](C)(C)C)N(C)C(=O)C(F)(F)F (stereo not given) ): 91.9 µM

Recorded Kd (compound `CN(C)CC#CCN1C(=O)CCC1=O` ): 208 µM

###

species: Cavia porcellus; test: Concentration that elicits 50% of its own maximum contractile response, in guinea pig ileum; format: functional
pEC50: −log10 of the molar value.
The threshold is inclusive: pEC50 of exactly 6 counts as Criterion met; values below receive Criterion not met.

Study these solved cases before continuing.
SMILES_REPR	CAT
CC(=O)N(CC#CC[N+](C)(C)C)C(C)=O	Criterion not met
CC(=O)N(CC#CCN(C)C)C(C)=O	Criterion not met
CN(C)CC#CCN1C(=O)CCC1=O	Criterion not met

QUERY: Quick check, pEC50 >= 6? `CC(=O)N(C)CC#CCN1CCCC1`
RESULT: Criterion met

###

Below, each of the molecules is paired with its reported Kd value.
biological target: Muscarinic acetylcholine receptor; test: Equilibrium dissociation constant muscarinic receptor complex, measured in guinea pig ileum; format: functional, tissue-based, Cavia porcellus
Supply the numeric figure in µM, leaving out any unit text.

Previously resolved entries follow.
MOLECULE	UNIT_NAME	Kd
CC(=O)N(C(C)=O)C(C)C#CCN(C)C (configuration not stated)	µM	21.6
CC(=O)N(C(C)C#CCN1CCCC1)S(C)(=O)=O (configuration not stated)	µM	3.1

Proceed to the following item.
Recorded Kd (molecule CC(=O)N(C)C(C)C#CCN1CCCC1 (configuration not stated) ): 0.24

###

biological target: Muscarinic acetylcholine receptor; test: Equilibrium dissociation constant muscarinic receptor complex, measured in guinea pig ileum; format: functional, tissue-based, Cavia porcellus
MEASURED_ATTRIBUTE: Kd (µM)
Supply the numeric figure in µM, leaving out any unit text.

Previously resolved entries follow.
COMPOUND	ASSAY_SYSTEM	RECORDED_RESULT
CC(=O)N(CC#CCN(C)C)C(C)=O	Muscarinic acetylcholine receptor	65.6
CC(C#CCN1CCCC1)N(C)S(C)(=O)=O (centres undefined)	Muscarinic acetylcholine receptor	13
CC(C#CCN(C)C)N(C)C(=O)C(F)(F)F (centres undefined)	Muscarinic acetylcholine receptor	95.4

Recorded Kd (compound `CN(CC#CCN1CCCC1)S(C)(=O)=O` ): 68
